# System Name: ZIKV NS5 RdRp (Zika virus, UniProt A0A024B7W1)
# Sequence (A0A024B7W1 2786-3423): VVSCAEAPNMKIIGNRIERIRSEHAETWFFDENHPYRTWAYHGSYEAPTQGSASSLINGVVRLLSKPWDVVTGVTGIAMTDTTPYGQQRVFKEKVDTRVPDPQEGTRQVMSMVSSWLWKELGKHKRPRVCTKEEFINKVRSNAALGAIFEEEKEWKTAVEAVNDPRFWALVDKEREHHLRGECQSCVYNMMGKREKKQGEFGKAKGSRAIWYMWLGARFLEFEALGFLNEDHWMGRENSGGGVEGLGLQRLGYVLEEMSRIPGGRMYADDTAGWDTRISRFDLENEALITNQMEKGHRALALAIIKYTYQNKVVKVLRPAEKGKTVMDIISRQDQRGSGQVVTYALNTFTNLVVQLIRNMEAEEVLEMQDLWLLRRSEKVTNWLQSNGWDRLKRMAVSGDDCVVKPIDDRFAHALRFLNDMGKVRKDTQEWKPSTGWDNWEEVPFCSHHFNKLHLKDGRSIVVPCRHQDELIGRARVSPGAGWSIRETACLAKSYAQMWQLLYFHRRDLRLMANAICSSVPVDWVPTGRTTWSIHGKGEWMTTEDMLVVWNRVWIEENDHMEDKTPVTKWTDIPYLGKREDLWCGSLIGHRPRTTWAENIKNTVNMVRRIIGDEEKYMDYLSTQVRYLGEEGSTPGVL
Each record here notes measured pIC50.
On this scale, pIC50 is minus log10 of a concentration expressed in M (mol/L).

CCC(C)n1ncn(-c2ccc(N3CCN(c4ccc(OCC5COC(Cn6cncn6)(c6ccc(Cl)cc6Cl)O5)cc4)CC3)cc2)c1=O (centres unmarked)	5.74

Now for another entry.
Report value only: pIC50, ZIKV NS5 RdRp (Zika virus, UniProt A0A024B7W1), CCCCCCOC(=O)NC(=N)c1ccc(NCc2nc3cc(C(=O)N(CCC(=O)OCC)c4ccccn4)ccc3n2C)cc1 [DAB, Dabigatran etexilate] 4.95

----------
# Protocol Details: in vitro
# Experimental Conditions: human
Measured Parameter: CC50 at 24 h (µM)
Value expressed in µM; do not type the unit.

Tell me its CC50 at 24 h given Cc1cc2c(C(C)C)c(O)c(O)c(C=O)c2c(O)c1-c1c(C)cc2c(C(C)C)c(O)c(O)c(C=O)c2c1O [GOS, Gossypol (acetic acid)] as the entry. 7.79
